Attribution: paper PMC5011342

Tested on: expanded OPCs
assay-name: cells
experimental-context: Rattus norvegicus, 72 h, read-out: 1 µM (% DMSO)
Starred links: 1 amine or outer side, 2 acyl side, 3 side chain; linkers in the order of their positions; H or OH if unused. Positions of bridges follow the written chain, without caps; N, C: chain ends. Non-standard residues stand in square brackets, D forms with d. Residues, ends and D or L forms follow the SMILES beside them. Chains are numbered I, II in the order given. Actinocin(9to1) = Cc1c2oc3c(C)ccc(C(=O)[*:1])c3nc-2c(C(=O)[*:2])c(N)c1=O; NMeV = CN[C@H](C(=O)O)C(C)C; Sar = CNCC(=O)O
measured-parameter: viability at 1 µM (%)
// units = %; emit number, no label

Examples with answers:
Entry CN1C(=O)CN=C(c2ccccc2)c2cc(Cl)ccc21 has what viability at 1 µM?
97.2

Entry CC1(C)C[C@@H]1C(=O)N/C(=C\CCCCSC[C@H](N)C(=O)O)C(=O)O has what viability at 1 µM?
95.5

Entry Oc1ccc2c3c1O[C@H]1[C@@H](O)CC[C@@]4(O)[C@@H](C2)N(CC2CCC2)CC[C@]314 has what viability at 1 µM?
98.8

Entry COc1ccc(CCN(C)CCCC(C#N)(c2ccc(OC)c(OC)c2)C(C)C)cc1OC (centres unmarked) has what viability at 1 µM?
92.8

Entry CCN(CC)CCOC(=O)C(O)(c1ccccc1)c1ccccc1 has what viability at 1 µM?
88.2

Entry CN1CCC[C@H]1c1cccnc1 has what viability at 1 µM?
89.4

Entry C[C@]12CC[C@H]3[C@@H](CCC4=CC(=O)CC[C@@]43C)[C@@H]1CC[C@@H]2O has what viability at 1 µM?
87.4

Entry Nc1nc2ccc(Cl)cc2c2nc(-c3ccco3)nn12 has what viability at 1 µM?
94.8

Entry CNCC[C@H](Oc1cccc2ccccc12)c1cccs1 has what viability at 1 µM?
30.3

Entry Cc1c2oc3c(C)ccc(C(=O)N[C@@H]4C(=O)N[C@H](C(C)C)C(=O)N5CCC[C@H]5C(=O)N(C)CC(=O)N(C)[C@@H](C(C)C)C(=O)O[C@@H]4C)c3nc-2c(C(=O)N[C@@H]2C(=O)N[C@H](C(C)C)C(=O)N3CCC[C@H]3C(=O)N(C)CC(=O)N(C)[C@@H](C(C)C)C(=O)O[C@@H]2C)c(N)c1=O [Dactinomycin] (I: T[dV]P[Sar][NMeV] / II: T[dV]P[Sar][NMeV]; ester I:1-I:C, II:1-II:C; linker I:N-II:N via Actinocin(9to1)) has what viability at 1 µM?
11.1

Would you kindly look at the next entry?
Entry O=C(O)CCCc1ccc(N(CCCl)CCCl)cc1 has what viability at 1 µM?
80.8

----------
Tested on: expanded OPCs
assay-name: cells
experimental-context: Rattus norvegicus, 72 h, read-out: 1 µM (% DMSO), alamarBlue viability of expanded OPCs, compound at 1 µM, sheet All Tox data
// NB: equality with 90% counts as Not met; only viability at 1 µM strictly below is Met

# check: viability at 1 µM < 90% for CCN(CC)C(=S)SSC(=S)N(CC)CC [Disulfiram]
Met

Next:
# check: viability at 1 µM < 90% for CN(C)CCC=C1c2ccccc2COc2ccccc21 [Doxepin]
Met

# check: viability at 1 µM < 90% for Cc1onc(-c2ccccc2)c1-c1ccc(S(N)(=O)=O)cc1 [Valdecoxib]
Not met

----------
Test system: expanded OPCs
assay-name: cells
experimental-context: Rattus norvegicus, 72 h, read-out: 1 µM (% DMSO), alamarBlue viability of expanded OPCs, compound at 1 µM, sheet All Tox data
measured-parameter: viability at 1 µM (%)
// units = %; emit number, no label

Entry CNNCc1ccc(C(=O)NC(C)C)cc1 has what viability at 1 µM?
87.2

Entry CCOC(=O)[C@H](CCc1ccccc1)N[C@@H](C)C(=O)N1[C@H](C(=O)O)C[C@@H]2CCC[C@@H]21 has what viability at 1 µM?
98.4

Entry C#C[C@]1(O)CC[C@H]2[C@@H]3CCc4cc(O)ccc4[C@H]3CC[C@@]21C has what viability at 1 µM?
88

Entry COc1ccnc(C[S+]([O-])c2nc3ccc(OC(F)F)cc3[nH]2)c1OC (centres unmarked) has what viability at 1 µM?
91.1

Entry C[C@]12C/C(=C/O)C(=O)C[C@@H]1CC[C@@H]1[C@@H]2CC[C@@]2(C)[C@H]1CC[C@]2(C)O has what viability at 1 µM?
79.2

Next:
Entry OCCN1C[C@H](O)[C@@H](O)[C@H](O)[C@H]1CO has what viability at 1 µM?
92.6

Entry COc1cc(OC)c(C(=O)CCCN2CCCC2)c(OC)c1 has what viability at 1 µM?
97.6

Entry CN1CCC(=C2c3ccccc3CCc3sccc32)CC1 has what viability at 1 µM?
65.3

Entry CC(=O)NCCCCCCNC(C)=O [Hexamethylene bisacetamide] has what viability at 1 µM?
83.1

Entry O=C1[C@H](CC[C@H](O)c2ccc(F)cc2)[C@@H](c2ccc(O)cc2)N1c1ccc(F)cc1 has what viability at 1 µM?
87.4

----------
Listed here are compounds together with their documented 10 µM (% DMSO).
Tested on: expanded OPCs
assay-name: cells
experimental-context: alamarBlue viability of expanded OPCs, compound at 10 µM, relative to DMSO control
Structures can show the parent of a compound that is named as a salt.
// units = % DMSO; emit number, no label

For expanded OPCs, provide 10 µM (% DMSO) of O=C(O)c1cccnc1 please.
85.5

For expanded OPCs, provide 10 µM (% DMSO) of CC(C)n1c(/C=C/C(O)CC(O)CC(=O)O)c(-c2ccc(F)cc2)c2ccccc21 (stereo not shown) please.
9.3

For expanded OPCs, provide 10 µM (% DMSO) of OC(CCN1CCCCC1)(c1ccccc1)C1CCCCC1 (stereo not shown) please.
67.7

For expanded OPCs, provide 10 µM (% DMSO) of Nc1cc(N2CCCCC2)nc(N)[n+]1[O-] please.
89.5

For expanded OPCs, provide 10 µM (% DMSO) of COc1cccc2c1C(=O)c1c(O)c3c(c(O)c1C2=O)C[C@@](O)(C(=O)CO)C[C@@H]3O[C@H]1C[C@H](N)[C@H](O)[C@H](C)O1 please.
7.8

For expanded OPCs, provide 10 µM (% DMSO) of CC1(C)O[C@@H]2C[C@H]3[C@@H]4CCC5=CC(=O)C=C[C@]5(C)[C@@]4(F)[C@@H](O)C[C@]3(C)[C@]2(C(=O)CO)O1 please.
69.5

For expanded OPCs, provide 10 µM (% DMSO) of CN(C)C(=O)Oc1ccc[n+](C)c1 [Pyridostigmine Bromide] please.
84.4

For expanded OPCs, provide 10 µM (% DMSO) of CN(C)CCCC1(c2ccc(F)cc2)OCc2cc(C#N)ccc21 (stereo not shown) [Nitalapram, reference compound] please.
99.4

For expanded OPCs, provide 10 µM (% DMSO) of CNCCC(Oc1ccc(C(F)(F)F)cc1)c1ccccc1 (stereo not shown) [Fluoxetine hydrochloride] please.
7.9

For expanded OPCs, provide 10 µM (% DMSO) of NNC(=O)c1ccncc1 please.
66.3

Next:
For expanded OPCs, provide 10 µM (% DMSO) of O=C(NCC1CCCCN1)c1cc(OCC(F)(F)F)ccc1OCC(F)(F)F (stereo not shown) [Flecainide] please.
7.7

For expanded OPCs, provide 10 µM (% DMSO) of CC(C)(S)[C@@H](N)C(=O)O please.
92.6

For expanded OPCs, provide 10 µM (% DMSO) of NNCCc1ccccc1 please.
87.1

For expanded OPCs, provide 10 µM (% DMSO) of COc1cc2nc(N3CCN(C(=O)C4CCCO4)CC3)nc(N)c2cc1OC (stereo not shown) please.
74.1

For expanded OPCs, provide 10 µM (% DMSO) of Oc1c(Cl)cc(Cl)c(Cl)c1Cc1c(O)c(Cl)cc(Cl)c1Cl please.
9.0

----------
Test system: expanded OPCs
assay-name: cells
experimental-context: Rattus norvegicus, 72 h, read-out: 10 µM (% DMSO), alamarBlue viability, NCC library compound at 10 µM, sheet "All Tox data"
// NB: equality with 80% counts as FALSE; only viability at 10 µM strictly below is TRUE

# check: viability at 10 µM < 80% for COc1ccc2cc(CCC(C)=O)ccc2c1
FALSE

# check: viability at 10 µM < 80% for O=C1Nc2ccc(Cl)cc2[C@@](C#CC2CC2)(C(F)(F)F)O1
TRUE

# check: viability at 10 µM < 80% for C[C@@H]1CN(CCCn2c3ccccc3c3ccccc32)C[C@H](C)N1
TRUE

# check: viability at 10 µM < 80% for Oc1ccc(/C=C/c2cc(O)cc(O)c2)cc1
TRUE
